# SUBJECT OF TEST: GST-Ap-NF-kB RHD (Exaiptasia pallida (Aiptasia), UniProt A0A913YAJ5 2-422)
# Sequence: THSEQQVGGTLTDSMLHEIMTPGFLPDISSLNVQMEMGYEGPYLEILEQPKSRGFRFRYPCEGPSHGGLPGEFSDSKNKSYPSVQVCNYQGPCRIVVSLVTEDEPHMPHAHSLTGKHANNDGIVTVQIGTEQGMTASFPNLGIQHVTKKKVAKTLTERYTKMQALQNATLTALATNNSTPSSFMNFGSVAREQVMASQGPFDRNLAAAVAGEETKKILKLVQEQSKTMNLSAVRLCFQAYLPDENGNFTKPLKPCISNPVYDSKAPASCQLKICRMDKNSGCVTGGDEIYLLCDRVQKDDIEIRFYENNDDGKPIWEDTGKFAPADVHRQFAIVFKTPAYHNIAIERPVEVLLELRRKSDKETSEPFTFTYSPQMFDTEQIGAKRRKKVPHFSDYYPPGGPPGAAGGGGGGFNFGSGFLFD
# TEST METHOD NOTES: protein-binding microarray (PBM); PBM: ~300 nM protein, 6 mM HEPES pH 7.8, 80 mM KCl, 0.5 mM EDTA, 0.5 mM EGTA, 6% glycerol, 35 ng/ul poly-dIdC, 1% milk, 1 h, room temperature; high values mean tight binding
# TEST CONTEXT: dsDNA, one strand shown
Listed below: binding signal values for each entry.
A number alone suffices; assume z-score.

As a guide, the following entries are already answered.
1) CCGATTAACATCAGGGGAGAAACTGATGTTAATCGGGTCTTGATTCGCTTGACGCTGCTG :: 4.39
2) CCGATTAACATCAGGGGGAGGGATGATGTTAATCGGGTCTTGATTCGCTTGACGCTGCTG :: 4.44
3) CCGATTAACATCAGGAATTTCCCTGATGTTAATCGGGTCTTGATTCGCTTGACGCTGCTG :: 6.77
4) CCGATTAACATCAGGGAAGCACCTGATGTTAATCGGGTCTTGATTCGCTTGACGCTGCTG :: 4.67
5) CCGATTAACATCAAATTATCCCCTGATGTTAATCGGGTCTTGATTCGCTTGACGCTGCTG :: 6.03

Quick note, binding signal for "CCGATTAACATCACCGTTTTCCCTGATGTTAATCGGGTCTTGATTCGCTTGACGCTGCTG" landed at 3.62

Quick note, binding signal for "CCGATTAACATCAGGGGGTAGGATGATGTTAATCGGGTCTTGATTCGCTTGACGCTGCTG" landed at 4.15

Quick note, binding signal for "CCGATTAACATCAACACCCCCCCTGATGTTAATCGGGTCTTGATTCGCTTGACGCTGCTG" landed at 5.32

Quick note, binding signal for "CCGATTAACATCAGGGAAAATTATGATGTTAATCGGGTCTTGATTCGCTTGACGCTGCTG" landed at 5.47

###

Listed below: binding signal values for each entry.
# SUBJECT OF TEST: GST-Ap-NF-kB RHD (Exaiptasia pallida (Aiptasia), UniProt A0A913YAJ5 2-422)
# Sequence: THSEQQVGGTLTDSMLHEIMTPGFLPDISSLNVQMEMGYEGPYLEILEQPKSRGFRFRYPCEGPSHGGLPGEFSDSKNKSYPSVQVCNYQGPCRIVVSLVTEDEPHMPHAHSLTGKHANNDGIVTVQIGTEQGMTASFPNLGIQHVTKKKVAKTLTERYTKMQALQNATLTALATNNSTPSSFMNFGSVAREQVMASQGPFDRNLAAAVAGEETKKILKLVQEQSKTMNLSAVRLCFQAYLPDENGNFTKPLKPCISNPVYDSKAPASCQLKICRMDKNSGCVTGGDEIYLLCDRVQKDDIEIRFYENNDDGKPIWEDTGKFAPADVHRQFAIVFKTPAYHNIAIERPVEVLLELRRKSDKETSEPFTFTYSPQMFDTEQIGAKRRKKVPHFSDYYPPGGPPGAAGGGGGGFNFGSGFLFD
# TEST METHOD NOTES: protein-binding microarray (PBM); PBM: ~300 nM protein, 6 mM HEPES pH 7.8, 80 mM KCl, 0.5 mM EDTA, 0.5 mM EGTA, 6% glycerol, 35 ng/ul poly-dIdC, 1% milk, 1 h, room temperature; high values mean tight binding
# TEST CONTEXT: dsDNA, one strand shown
A number alone suffices; assume z-score.

As a guide, the following entries are already answered.
1) CCGATTAACATCAGGGGAAGCACTGATGTTAATCGGGTCTTGATTCGCTTGACGCTGCTG :: 5.88
2) CCGATTAACATCACGGGTTTTTCTGATGTTAATCGGGTCTTGATTCGCTTGACGCTGCTG :: 3.7

Quick note, binding signal for "CCGATTAACATCAAATATACCCCTGATGTTAATCGGGTCTTGATTCGCTTGACGCTGCTG" landed at 4.01

Quick note, binding signal for "CCGATTAACATCAGGGGAACACCTGATGTTAATCGGGTCTTGATTCGCTTGACGCTGCTG" landed at 6.84

Quick note, binding signal for "CCGATTAACATCAGGCCCCCCCCTGATGTTAATCGGGTCTTGATTCGCTTGACGCTGCTG" landed at 5.7

Quick note, binding signal for "CCGATTAACATCACTTATCCCCCTGATGTTAATCGGGTCTTGATTCGCTTGACGCTGCTG" landed at 4.81

Quick note, binding signal for "CCGATTAACATCACCCGCGCTCATGATGTTAATCGGGTCTTGATTCGCTTGACGCTGCTG" landed at 1.32

Quick note, binding signal for "CCGATTAACATCAAATATCCCCCTGATGTTAATCGGGTCTTGATTCGCTTGACGCTGCTG" landed at 8.79

Quick note, binding signal for "CCGATTAACATCAGGGGTACCCCTGATGTTAATCGGGTCTTGATTCGCTTGACGCTGCTG" landed at 7.75

###

# SUBJECT OF TEST: GST-Nv-NF-kB (Cys allele) (Nematostella vectensis, UniProt E5G601 2-411)
# Sequence: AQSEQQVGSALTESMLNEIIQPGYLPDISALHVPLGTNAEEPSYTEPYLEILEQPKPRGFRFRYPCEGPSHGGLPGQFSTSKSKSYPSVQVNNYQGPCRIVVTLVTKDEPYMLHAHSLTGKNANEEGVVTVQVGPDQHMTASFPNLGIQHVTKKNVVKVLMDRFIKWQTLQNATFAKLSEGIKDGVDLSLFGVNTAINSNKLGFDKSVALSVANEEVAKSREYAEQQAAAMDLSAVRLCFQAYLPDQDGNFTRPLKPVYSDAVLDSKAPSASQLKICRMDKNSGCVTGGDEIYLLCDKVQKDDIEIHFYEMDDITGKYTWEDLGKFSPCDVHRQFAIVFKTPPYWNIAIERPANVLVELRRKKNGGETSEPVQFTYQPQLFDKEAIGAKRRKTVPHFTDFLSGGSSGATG
# TEST METHOD NOTES: protein-binding microarray (PBM); PBM: ~300 nM protein, 6 mM HEPES pH 7.8, 80 mM KCl, 0.5 mM EDTA, 0.5 mM EGTA, 6% glycerol, 35 ng/ul poly-dIdC, 1% milk, 1 h, room temperature; Ap Aiptasia and Nv Nematostella (sea anemones) / Co Capsaspora / Aq Amphimedon (sponge) / Dm Drosophila / Hu human; RHD is the Rel homology domain; high values mean tight binding
# TEST CONTEXT: dsDNA, one strand shown
Listed below: binding signal values for each entry.

As a guide, the following entries are already answered.
1. CCGATTAACATCAAAGAATCCCCTGATGTTAATCGGGTCTTGATTCGCTTGACGCTGCTG :: 9.68 z-score
2. CCGATTAACATCAGGGGAAACCATGATGTTAATCGGGTCTTGATTCGCTTGACGCTGCTG :: 7.42 z-score

Quick note, binding signal for "CCGATTAACATCAGGACAGTCCCTGATGTTAATCGGGTCTTGATTCGCTTGACGCTGCTG" landed at 5.23 z-score

Quick note, binding signal for "CCGATTAACATCAGAATATCCCCTGATGTTAATCGGGTCTTGATTCGCTTGACGCTGCTG" landed at 7.86 z-score

Quick note, binding signal for "CCGATTAACATCAGGGGAGGGACTGATGTTAATCGGGTCTTGATTCGCTTGACGCTGCTG" landed at 4.69 z-score

Quick note, binding signal for "CCGATTAACATCAGGGGACCACCTGATGTTAATCGGGTCTTGATTCGCTTGACGCTGCTG" landed at 3.46 z-score

Quick note, binding signal for "CCGATTAACATCAACACTCCCCCTGATGTTAATCGGGTCTTGATTCGCTTGACGCTGCTG" landed at 4.24 z-score

Quick note, binding signal for "CCGATTAACATCAAGGAGTTCCCTGATGTTAATCGGGTCTTGATTCGCTTGACGCTGCTG" landed at 2.29 z-score

Quick note, binding signal for "CCGATTAACATCACCCGATTCCCTGATGTTAATCGGGTCTTGATTCGCTTGACGCTGCTG" landed at 2.62 z-score

Values were extracted from paper PMC5700166.
